Test system: malignant melanoma cell line G361
Experiment: Cell growth inhibitory activity, G361
Type: cell-based
Details: Homo sapiens, G-361; Table 9
quantity_measured: IC50 (µM)

>>> recorded_measurement("COc1cc(/C=C/C(=O)CC(=O)/C=C/c2ccc(O)c(OC)c2)ccc1O [curcumin, reference compound]")
16.8
